T/C: recorded values
Tested on: CD2F1 mice, L1210 leukemia ip, survival T/C
Assay: NCI In Vivo Anticancer Drug Screen. Data for tumor model L1210 Leukemia (intraperitoneal) in CD2F1 (CDF1) mice
Details: endpoint: mean survival time; dose: 100.0 mg/kg/injection; schedule: Q04DX003 (ip); vehicle: saline with Tween-80; higher = longer survival
Inconclusive results and toxic doses are left out.
ENDPOINT LABEL: T/C

>  <COMPOUND>
Cc1ccc(NS(=O)(=O)c2cccc([N+](=O)[O-])c2)cc1Cl

>  <ASSAY TARGET>
CD2F1 mice, L1210 leukemia ip, survival T/C

>  <ENDPOINT LABEL>
T/C

>  <RECORDED VALUE>
92 % of control

$$$$
>  <COMPOUND>
O=C(O)C(Cl)(Br)C(Cl)c1ccccc1 (stereo unspecified)

>  <ASSAY TARGET>
CD2F1 mice, L1210 leukemia ip, survival T/C

>  <ENDPOINT LABEL>
T/C

>  <RECORDED VALUE>
100 % of control

$$$$
>  <COMPOUND>
O=C(CC(=O)Oc1ccc(Cl)cc1Cl)Oc1ccc(Cl)cc1Cl

>  <ASSAY TARGET>
CD2F1 mice, L1210 leukemia ip, survival T/C

>  <ENDPOINT LABEL>
T/C

>  <RECORDED VALUE>
97 % of control

$$$$
>  <COMPOUND>
Clc1c(Cl)c(Cl)[c]([Hg][c]2c(Cl)c(Cl)c(Cl)c(Cl)c2Cl)c(Cl)c1Cl

>  <ASSAY TARGET>
CD2F1 mice, L1210 leukemia ip, survival T/C

>  <ENDPOINT LABEL>
T/C

>  <RECORDED VALUE>
96 % of control

$$$$
>  <COMPOUND>
COC1CCCCC1SCSC1CCCCC1OC (stereo unspecified)

>  <ASSAY TARGET>
CD2F1 mice, L1210 leukemia ip, survival T/C

>  <ENDPOINT LABEL>
T/C

>  <RECORDED VALUE>
91 % of control

$$$$
>  <COMPOUND>
CC1(C)CCC(C)(C)c2c1ccc(O)c2Sc1c(O)ccc2c1C(C)(C)CCC2(C)C

>  <ASSAY TARGET>
CD2F1 mice, L1210 leukemia ip, survival T/C

>  <ENDPOINT LABEL>
T/C

>  <RECORDED VALUE>
95 % of control

$$$$
>  <COMPOUND>
Cn1c2ccccc2c2ccccc21

>  <ASSAY TARGET>
CD2F1 mice, L1210 leukemia ip, survival T/C

>  <ENDPOINT LABEL>
T/C

>  <RECORDED VALUE>
100 % of control

$$$$
>  <COMPOUND>
CC(CCCC1SCC2NC(=O)NC21)C(=O)O (stereo unspecified)

>  <ASSAY TARGET>
CD2F1 mice, L1210 leukemia ip, survival T/C

>  <ENDPOINT LABEL>
T/C

>  <RECORDED VALUE>
98 % of control

$$$$
>  <COMPOUND>
c1ccc(C(=NN=C(c2ccccc2)c2ccccc2)c2ccccc2)cc1

>  <ASSAY TARGET>
CD2F1 mice, L1210 leukemia ip, survival T/C

>  <ENDPOINT LABEL>
T/C

>  <RECORDED VALUE>
97 % of control

$$$$
>  <COMPOUND>
O=C(O)CNC(=O)COc1ccccc1

>  <ASSAY TARGET>
CD2F1 mice, L1210 leukemia ip, survival T/C

>  <ENDPOINT LABEL>
T/C

>  <RECORDED VALUE>
101 % of control

$$$$
>  <COMPOUND>
CCOC(=O)Oc1c(Cl)c(Cl)c(Cl)c(Cl)c1Cl

>  <ASSAY TARGET>
CD2F1 mice, L1210 leukemia ip, survival T/C

>  <ENDPOINT LABEL>
T/C

>  <RECORDED VALUE>
96 % of control

$$$$
>  <COMPOUND>
Cc1ccc(S(=O)(=O)O)c2c([N+](=O)[O-])cccc12

>  <ASSAY TARGET>
CD2F1 mice, L1210 leukemia ip, survival T/C

>  <ENDPOINT LABEL>
T/C

>  <RECORDED VALUE>
100 % of control

$$$$
>  <COMPOUND>
O=CNNC=O

>  <ASSAY TARGET>
CD2F1 mice, L1210 leukemia ip, survival T/C

>  <ENDPOINT LABEL>
T/C

>  <RECORDED VALUE>
107 % of control

$$$$
>  <COMPOUND>
O=C(O)c1ccccc1C(=O)Nc1ccc(Cl)cc1

>  <ASSAY TARGET>
CD2F1 mice, L1210 leukemia ip, survival T/C

>  <ENDPOINT LABEL>
T/C

>  <RECORDED VALUE>
94 % of control

$$$$
>  <COMPOUND>
Nc1ccc(I)cc1F

>  <ASSAY TARGET>
CD2F1 mice, L1210 leukemia ip, survival T/C

>  <ENDPOINT LABEL>
T/C

>  <RECORDED VALUE>
100 % of control

$$$$
>  <COMPOUND>
CC1C2C=CC1C(c1c3ccc(=O)cc-3oc3cc(O)ccc13)C2C(=O)O (stereo unspecified)

>  <ASSAY TARGET>
CD2F1 mice, L1210 leukemia ip, survival T/C

>  <ENDPOINT LABEL>
T/C

>  <RECORDED VALUE>
103 % of control

$$$$

====

Tested on: CD2F1 mice, L1210 leukemia ip, survival T/C
Assay: NCI In Vivo Anticancer Drug Screen. Data for tumor model L1210 Leukemia (intraperitoneal) in CD2F1 (CDF1) mice
Conditions: endpoint: mean survival time; dose: 200.0 mg/kg/injection; schedule: Q04DX002 (ip); vehicle: saline with Tween-80
Inconclusive results and toxic doses are left out. How the source made its calls: active means survival T/C of 150% or more; inactive means T/C below 125% in these data.
Possible outcomes: True for active, False for inactive

>  <COMPOUND>
O=C(O)CCCCCNCC(CNCCCCCC(=O)O)(C(=O)O)C(=O)O

>  <LABEL VALUE>
False

$$$$
>  <COMPOUND>
N#[N+]c1c(O)ccc2ccccc12

>  <LABEL VALUE>
False

$$$$
>  <COMPOUND>
NC(=S)c1ncn(C2OC(COC=O)C(OC=O)C2OC=O)c1NC=O (centres undefined)

>  <LABEL VALUE>
True

$$$$
>  <COMPOUND>
CN(C)C(=O)Sc1c(S(=O)(=O)F)ccc(Cl)c1Cl

>  <LABEL VALUE>
False

$$$$

====

T/C: recorded values
Tested on: CD2F1 mice, L1210 leukemia ip, survival T/C
Experiment: NCI In Vivo Anticancer Drug Screen. Data for tumor model L1210 Leukemia (intraperitoneal) in CD2F1 (CDF1) mice
Settings: endpoint: mean survival time; dose: 400.0 mg/kg/injection; schedule: Q04DX003 (ip); vehicle: saline with Tween-80; higher = longer survival
Inconclusive results and toxic doses are left out.

>  <COMPOUND>
CCCCCCOC(=O)C(O)c1ccccc1 (stereo not given)

>  <ASSAY TARGET>
CD2F1 mice, L1210 leukemia ip, survival T/C

>  <T/C>
97 % of control

$$$$
>  <COMPOUND>
CCCCCCOc1ccc(/C=N\N=C\c2ccc(OCCCCCC)cc2)cc1

>  <ASSAY TARGET>
CD2F1 mice, L1210 leukemia ip, survival T/C

>  <T/C>
91 % of control

$$$$
>  <COMPOUND>
COC(=O)C(=O)Cc1cc(OC)cc(=O)o1

>  <ASSAY TARGET>
CD2F1 mice, L1210 leukemia ip, survival T/C

>  <T/C>
95 % of control

$$$$
>  <COMPOUND>
COC(=O)C1C2C(=O)NC(=O)C2C(c2ccc(-c3ccccc3)cc2)N1C1CCCCC1 (stereo not given)

>  <ASSAY TARGET>
CD2F1 mice, L1210 leukemia ip, survival T/C

>  <T/C>
103 % of control

$$$$
>  <COMPOUND>
CC(=O)OC(OC(C)=O)c1ccc([N+](=O)[O-])cc1

>  <ASSAY TARGET>
CD2F1 mice, L1210 leukemia ip, survival T/C

>  <T/C>
92 % of control

$$$$
>  <COMPOUND>
Fc1ccc2c(c1)C(Br)c1ccccc1-2 (stereo not given)

>  <ASSAY TARGET>
CD2F1 mice, L1210 leukemia ip, survival T/C

>  <T/C>
97 % of control

$$$$
>  <COMPOUND>
COc1cc2c(cc1OC)NC(=O)CC(=O)N2

>  <ASSAY TARGET>
CD2F1 mice, L1210 leukemia ip, survival T/C

>  <T/C>
98 % of control

$$$$
>  <COMPOUND>
COC(=O)C1CCCCCC1=O (stereo not given)

>  <ASSAY TARGET>
CD2F1 mice, L1210 leukemia ip, survival T/C

>  <T/C>
88 % of control

$$$$
>  <COMPOUND>
C/C(=N\O)c1ccc2c3c(ccc([N+](=O)[O-])c13)CC2

>  <ASSAY TARGET>
CD2F1 mice, L1210 leukemia ip, survival T/C

>  <T/C>
103 % of control

$$$$
>  <COMPOUND>
COc1ccc(OC)c(C2=CCCCCC2)c1OC

>  <ASSAY TARGET>
CD2F1 mice, L1210 leukemia ip, survival T/C

>  <T/C>
98 % of control

$$$$
